Study Target: T1, biotinylated human plasma Kallikrein (human, UniProt P03952 20-638, biotinylated)
T1 construct: also called Biotinylated hPK
T1 sequence (P03952 20-638 limits assumed): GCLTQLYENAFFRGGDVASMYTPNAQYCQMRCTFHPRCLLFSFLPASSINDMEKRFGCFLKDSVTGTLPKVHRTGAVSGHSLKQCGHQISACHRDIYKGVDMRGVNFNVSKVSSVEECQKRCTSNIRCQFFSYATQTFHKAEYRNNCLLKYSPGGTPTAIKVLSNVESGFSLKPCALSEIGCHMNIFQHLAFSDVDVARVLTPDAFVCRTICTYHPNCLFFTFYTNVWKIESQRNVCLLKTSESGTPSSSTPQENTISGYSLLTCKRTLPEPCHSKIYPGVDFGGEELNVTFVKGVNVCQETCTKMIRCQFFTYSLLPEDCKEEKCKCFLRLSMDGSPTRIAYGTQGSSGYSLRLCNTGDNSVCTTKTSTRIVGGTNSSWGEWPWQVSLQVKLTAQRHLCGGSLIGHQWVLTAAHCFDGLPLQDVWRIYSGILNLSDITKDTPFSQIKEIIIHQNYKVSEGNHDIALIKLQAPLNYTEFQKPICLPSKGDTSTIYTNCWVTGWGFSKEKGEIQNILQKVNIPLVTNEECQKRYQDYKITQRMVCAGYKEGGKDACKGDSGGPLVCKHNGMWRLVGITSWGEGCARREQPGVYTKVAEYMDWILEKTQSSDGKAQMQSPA
Test Method Notes: phage binding assay, signal:background
Numbered stars: 1 amine (or outer) side, 2 acyl side, 3 side chain; on linkers, the order of the positions; unused ones are H or OH. Bridge positions count the residues as written; N and C are the ends. Ends that are not written are not given here. TBMB = c1c(C[*:1])cc(C[*:3])cc1C[*:2]
I'd be grateful if you could share measured Binding assay signal for these entries.
One number for each entry.

These recorded examples may help you get a feel for the data.
CSWPARCTHTELC (linker 1-7-13 via TBMB (inferred)) [SEQ ID NO 144]	69
CVWPARCTHQDLC (linker 1-7-13 via TBMB (inferred)) [SEQ ID NO 138]	71

[ask] Reported Binding assay signal, binder CAWPARCMHDDLC (linker 1-7-13 via TBMB (inferred)) [SEQ ID NO 145] : ____
[reply] 69
